Entries and their peptide exchange yield values follow.
# Target Desc: T1, HLA-A*02:01 (human)
# T1 construct: MHC class I monomer of the UV-ligand exchange assay; also called peptide-receptive MHC molecules; MHC class I
# Method Description: UV peptide-exchange ELISA

Known peptide exchange yield results, listed for orientation:
YLPYIFPNI = 50 to 75%
ALLDQLHTLL = ≥ 75%
VLSVITEEL = 50 to 75%

Turning now to a further record.
[ask] Suppose we examine the binder SLWNAGTSV ; what peptide exchange yield value has been reported?
[reply] 50 to 75%
